system: human liver cancer cell line (HepG2); test: MTT assay, cytotoxicity; assay type: cell-based; details: HepG2; 312.5 μg/ml; 24 hours
Below is a list of entries, each paired with its recorded survival percentage (mean ± SEM) value.
Answer format: numeric, % implied, no suffix.

{"chem_smiles": "CCOC(=O)Cn1c(SCC(=O)Nc2ccc(C(=O)/C=C\\c3ccccc3Cl)cc2)nc2sc3c(c2c1=O)CCN(C(=O)OCC)C3", "tested_on": "human liver cancer cell line (HepG2)", "observed_result": 28.4}
{"chem_smiles": "CCOCc1nc2sc3c(c2c(=O)n1CC(=O)Nc1ccc(C(=O)/C=C\\c2cccc([N+](=O)[O-])c2)cc1)CCN(C(=O)OCC)C3", "tested_on": "human liver cancer cell line (HepG2)", "observed_result": 77.8}
{"chem_smiles": "CCOC(=O)N1CCc2c(sc3nc(SCC(=O)Nc4ccc(C(=O)/C=C\\c5cc(OC)c(OC)c(OC)c5)cc4)[nH]c(=O)c23)C1", "tested_on": "human liver cancer cell line (HepG2)", "observed_result": 19.8}
{"chem_smiles": "CCOC(=O)Cn1c(SCC(=O)Nc2ccc(C(=O)/C=C\\c3cccc([N+](=O)[O-])c3)cc2)nc2sc3c(c2c1=O)CCN(C(=O)OCC)C3", "tested_on": "human liver cancer cell line (HepG2)", "observed_result": 21.1}
{"chem_smiles": "CCOC(=O)Cn1c(SCC(=O)Nc2ccc(C(=O)/C=C\\c3cc(OC)c(OC)c(OC)c3)cc2)nc2sc3c(c2c1=O)CCN(C(=O)OCC)C3", "tested_on": "human liver cancer cell line (HepG2)", "observed_result": 13.3}

Consider now this further compound.
input: Dear colleague, please send me the reported survival percentage (mean ± SEM) for CCOC(=O)Cn1c(SCC(=O)Nc2ccc(C(=O)/C=C\c3cccc([N+](=O)[O-])c3)cc2)nc2sc3c(c2c1=O)CC(C)(C)NC3(C)C when you can.
output: 14.1
